Monocytes values by entry
- Test system: ICR (CD-1) mice
- Measurement notes: In vivo toxicity in mice (SC, IN, IP routes)
- Condition notes: IP, 3 doses (1hr, 12hr, 24hr); RN7-IN10, RN7-IN8 20 mg/kg; RN7-IN9, RN7-IN6 10 mg/kg; day 7; mean±SD, 4 mice
Parameter measured: Monocytes (%)

INSERT INTO results (substance, measured_result) VALUES
  ('FLGGLIKWPWWPWRR-NH2 [RN7-IN8, hybrid peptide of ranalexin (residues 1-7) and indolicidin (residues 6-13)]', 2.77),
  ('FLGGLIKWKWPWWPWRR-NH2 [RN7-IN10, hybrid peptide of ranalexin (residues 1-7) and indolicidin (residues 4-13)]', 2.8),
  ('FLGGLIKWWPWRR-NH2 [RN7-IN6, hybrid peptide of ranalexin (residues 1-7) and indolicidin (residues 8-13)]', 2.53),
  ('FLGGLIKKWPWWPWRR-NH2 [RN7-IN9, hybrid peptide of ranalexin (residues 1-7) and indolicidin (residues 5-13)]', 2.47);
